system: Respiratory syncytial virus; assay: Antiviral activity against respiratory syncytial virus in HEp-2 human lung carcinoma cell line; assay type: functional, organism-based
Quick reference for pEC50 among some molecules
Please treat pEC50 as minus the base-10 logarithm of the molar concentration.

Some solved entries appear below for comparison.
{"columns": ["Molecule", "Tested System", "Experimental Endpoint", "Reported"],
 "data": [
  ["CC(=O)CCn1c(Cn2nnc3ccccc32)nc2ccccc21", "Respiratory syncytial virus", "pEC50", 6.28],
  ["CC(C)CCn1c(Cn2nnc3ccccc32)nc2ccccc21", "Respiratory syncytial virus", "pEC50", 7.00],
  ["CSCCn1c(Cn2nnc3ccccc32)nc2ccccc21", "Respiratory syncytial virus", "pEC50", 6.52]
]}

Next molecule, pEC50 to be filled in.
// pEC50 lookup, molecule = `OCCn1c(Cn2nnc3ccccc32)nc2ccccc21` , result: 5.11

====

Each entry below lists one item and its recorded log10 of EC50 value.
tested on: Respiratory syncytial virus; assay: Antiviral activity against respiratory syncytial virus in HEp-2 human lung carcinoma cell line; type: functional, organism-based
Scale: log10; quantity: EC50; unit before log: µM

{"columns": ["Compound", "Tested System", "Reported"],
 "data": [
  ["OC(Cn1c(Cn2nnc3ccccc32)nc2ccccc21)c1ccccc1 (stereo not drawn)", "Respiratory syncytial virus", -0.23],
  ["CCCCn1c(Cn2nnc3ccccc32)nc2ccccc21", "Respiratory syncytial virus", -1.18],
  ["c1ccc(CCn2c(Cn3nnc4ccccc43)nc3ccccc32)cc1", "Respiratory syncytial virus", -0.11],
  ["CN(C)CCCn1c(Cn2nc3ccccc3n2)nc2ccccc21", "Respiratory syncytial virus", 0.56]
]}

GET /value?item= `CS(=O)(=O)CCn1c(Cn2nnc3ccccc32)nc2ccccc21` &field=log10 of EC50 returns -0.60

log10 of EC50 recorded for this compound, `c1ccc(Cn2c(Cn3nnc4ccccc43)nc3ccccc32)cc1` , is 1.02

// `N#CCCn1c(Cn2nnc3ccccc32)nc2ccccc21` : log10 of EC50 value = 0.43

According to the records, this compound `O=C(O)CCn1c(Cn2nnc3ccccc32)nc2ccccc21` displays log10 of EC50 of 1.26

Documented log10 of EC50 of CC(O)CCn1c(Cn2nnc3ccccc32)nc2ccccc21 (stereo not drawn) : -0.92

====

Listing of recorded log10(EC50) by entry.
test system: Respiratory syncytial virus; assay: Antiviral activity against respiratory syncytial virus in HEp-2 human lung carcinoma cell line; type: functional, organism-based
Note: values are log10 of EC50 expressed in nM.

{"columns": ["Compound", "Tested System", "log10(EC50)"],
 "data": [
  ["CC(C)CCn1c(Cn2nc3ccccc3n2)nc2ccccc21", "Respiratory syncytial virus", 2.64],
  ["c1ccc2[nH]c(Cn3nnc4ccccc43)nc2c1", "Respiratory syncytial virus", 4.49],
  ["CC(C)CCCn1c(Cn2nnc3ccccc32)nc2ccccc21", "Respiratory syncytial virus", 2.28],
  ["CN(C)CCCn1c(Cn2nnc3ccccc32)nc2ccccc21", "Respiratory syncytial virus", 3.04],
  ["O=C(Cn1c(Cn2nnc3ccccc32)nc2ccccc21)c1ccccc1", "Respiratory syncytial virus", 3.34]
]}

Consider `NC(=O)CCn1c(Cn2nnc3ccccc32)nc2ccccc21` . Its measured log10(EC50) is 3.32

Notebook: C[S+]([O-])CCn1c(Cn2nnc3ccccc32)nc2ccccc21 (stereo not drawn) , log10(EC50) read as 2.63

The measured log10(EC50) associated with `CC(C)=CCn1c(Cn2nnc3ccccc32)nc2ccccc21` reads 3.52
